Some compounds, each annotated with its measured pIC50.
- Target or system: GLuc secretion (model Sec61 substrate) from U87-MG-GLuc cells (Homo sapiens)
- Sequence (P61619 whole entry): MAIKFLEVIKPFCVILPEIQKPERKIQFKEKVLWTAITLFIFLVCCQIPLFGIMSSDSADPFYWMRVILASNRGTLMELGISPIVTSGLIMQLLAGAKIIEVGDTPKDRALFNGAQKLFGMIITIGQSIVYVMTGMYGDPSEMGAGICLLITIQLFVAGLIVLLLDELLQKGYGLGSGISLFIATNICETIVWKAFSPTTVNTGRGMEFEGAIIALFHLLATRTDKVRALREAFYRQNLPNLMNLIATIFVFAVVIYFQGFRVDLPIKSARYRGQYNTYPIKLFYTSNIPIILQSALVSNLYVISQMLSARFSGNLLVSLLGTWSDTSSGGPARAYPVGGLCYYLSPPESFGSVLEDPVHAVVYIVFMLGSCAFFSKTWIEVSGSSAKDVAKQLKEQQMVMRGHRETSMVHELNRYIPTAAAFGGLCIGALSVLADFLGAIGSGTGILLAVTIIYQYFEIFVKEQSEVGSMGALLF
- Assay summary: Gaussia luciferase (GLuc) secretory assay
- Test context: 18-h incubation, n = 3, read-out: IC50 (50% inhibition of GLuc expression)
- Procedure: To investigate the mechanistic basis for cytotoxicity, all CbA derivatives were evaluated for their ability to inhibit expression of a model Sec61 substrate using U87-MG cells engineered to express a naturally secreted reporter protein, Gaussia luciferase (GLuc) (Tables 1 and 2). For these studies, U87-MG-GLuc cells were exposed to increasing concentrations of each peptide, or vehicle, for 18 h, and the cell culture medium was assayed for the presence of GLuc. […]
Hey, just a heads up that pIC50 is the negative log base 10 of the concentration in molar.

Below, each entry is followed by its recorded pIC50 result.
CC[C@H](C)[C@H]1C(=O)N[C@@H](C)C(=O)N(C)[C@@H](CC(C)C)C(=O)N[C@@H](Cc2ccc(-c3ccccc3)cc2)C(=O)N(C)[C@H](C)C(=O)N[C@H](C)[C@H](N(C)C(=O)[C@H](CC(C)C)N(C)C(=O)[C@H](COC)N(C)C(=O)[C@H](OC(=O)[C@H](C(C)C)N(C)C)C(C)C)C(=O)N(C)[C@@H](COC)C(=O)N1C [Peptide 16c]	10.10
CC[C@H](C)[C@H]1C(=O)N[C@@H](C)C(=O)N(C)[C@@H](CC(C)C)C(=O)N[C@@H](Cc2ccc(OC)cc2)C(=O)N(C)[C@H](C)C(=O)N[C@H](C)[C@H](N(C)C(=O)[C@H](CC(C)C)N(C)C(=O)[C@H](COC)N(C)C(=O)[C@H](OC(=O)[C@H](C(C)C)N(C)C)C(C)C)C(=O)N(C)[C@@H](COC)C(=O)N1C [Peptide 16b]	10.40

Now consider a different compound.
**Q:** Record request: pIC50 value, item CC[C@H](C)[C@H]1C(=O)N[C@@H](C)C(=O)N(C)[C@@H](CC(C)C)C(=O)N[C@@H](Cc2ccc(OC)cc2)C(=O)N(C)[C@H](C)CC[C@H](C)[C@H](N(C)C(=O)[C@H](CC(C)C)N(C)C(=O)[C@H](C)N(C)C(=O)[C@H](OC(=O)[C@H](C(C)C)N(C)C)C(C)C)C(=O)N(C)[C@@H](C)C(=O)N1C [Peptide 3a]
**A:** 7.74

---

- System: U87-MG glioblastoma cells
- Assay summary: CellTiter-Glo viability assay, U87-MG cells
- Type: cell-based, human
- Test context: 50% viability after 72-hr incubation, n = 3
- Description: Viability Assays Using U87 MG Cells, HCT116 Cells and normal human dermal fibroblasts. Human U87-MG glioblastoma, HCT116 colon cancer cells and normal human dermal fibroblasts were from American Type Culture Collection (ATCC, Manasses, VA). […] (#PCS-201-041) from ATCC. […] The viability of cells was measured at 72 h using a CellTiter-Glo® Luminescent Cell Viability Assay (Promega Corp) and luminescent signals measured using a multi-mode microplate reader (Biotek Synergy HT). […]
Measure name: CC50
Quick note: unit goes after the number.

**Q:** Lookup: CC50 / U87-MG glioblastoma cells / CC[C@H](C)[C@H]1C(=O)N[C@@H](C)C(=O)N(C)[C@@H](CC(C)C)C(=O)N[C@@H](Cc2ccc(OC)cc2)C(=O)N(C)[C@H](C)CC[C@H](C)[C@H](N(C)C(=O)[C@H](CC(C)C)N(C)C(=O)[C@H](C)N(C)C(=O)[C@H](OC(=O)[C@H](C(C)C)N(C)C)C(C)C)C(=O)N(C)[C@@H](C)C(=O)N1C [Peptide 3a]
**A:** 56 nM

**Q:** Also CC[C@H](C)[C@H]1C(=O)N[C@@H](C)C(=O)N(C)[C@@H](CC(C)C)C(=O)N[C@@H](Cc2ccc(OC)cc2)C(=O)N(C)[C@H](C)C(=O)N[C@H](C)[C@H](N(C)C(=O)[C@H](CC(C)C)N(C)C(=O)[C@H](COC)N(C)C(=O)[C@H](OC(=O)[C@H](C(C)C)N(C)C)C(C)C)C(=O)N(C)[C@@H](COC)C(=O)N1C [Peptide 16b] ?
**A:** 2.2 nM
